Overview of recorded pKd for various binders
Target: T1, DFNB31_1, Q9P202
T1 sequence (Q9P202 135-233, limits assumed, looked up): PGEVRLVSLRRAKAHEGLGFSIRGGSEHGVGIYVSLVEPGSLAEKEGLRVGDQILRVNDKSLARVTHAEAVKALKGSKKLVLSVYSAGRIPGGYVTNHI
Assay: holdup assay
Parameters: key: below the threshold = too weak to quantify, mostly under pKd 3.1 to 4
Conditions: plain residues with an end cap or a label only (N-terminal biotin on a linker: ado-ado)
In your answer, state the number alone without any accompanying words.

Here's what some known entries look like.
# BINDER, MEASURED_PROPERTY, VAL
records = [
    ("TETASVCTKV [SLC23A1, Q9UHI7]", "pKd", 4.18),
    ("FVHPILQSAV [PRKCA, P17252]", "pKd", 4.29),
]

Now let's try a different one.
Exam item: Quick check: pKd of EEPEERHTEL [CES2, O00748] ?
Marked response: 3.6
